ASSAY EXPLANATION: chemical genetic growth profiling, strain panel (AID 1159580);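 further: tested at 20 µM; growth read once vehicle control cultures reached saturation at 30 °C; 1 = growth at the plate median or of vehicle wells; lower values mean less growth of the strain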
CONDITIONS: S. cerevisiae deletion strains, growth OD, locus YFL009W, strain cdc4, hits give low values
Hit rate of the full screen: of about 5,500 compounds, about 2,000 (36%) were called active. About 18% were inconclusive and are not listed. This is one part of the list.
OBSERVABLE: normalized growth
# respond with the number and nothing more

Below are worked cases with known answers.
1. CN(C)c1ccc(/C=C/c2ccc3ccccc3[n+]2C)cc1 0.976
2. Cn1nccc1-c1cc(Cl)cc(Cl)c1O 0.982
3. O=[N+]([O-])c1ccsc1Oc1cccc(C(F)(F)F)c1 0.925
4. Clc1ccccc1-c1csc(-c2cccnc2)n1 0.932
5. Brc1ccc(-c2csc(-c3cccnc3)n2)cc1 0.867

For the next question, use this molecule.
Give me measured normalized growth, please, for this molecule: Clc1cc(Cl)cc(C=NCc2ccccc2)c1 0.961
